target.desc: CCR2 (Homo sapiens (Human), UniProt P41597)
Sequence (P41597 whole entry): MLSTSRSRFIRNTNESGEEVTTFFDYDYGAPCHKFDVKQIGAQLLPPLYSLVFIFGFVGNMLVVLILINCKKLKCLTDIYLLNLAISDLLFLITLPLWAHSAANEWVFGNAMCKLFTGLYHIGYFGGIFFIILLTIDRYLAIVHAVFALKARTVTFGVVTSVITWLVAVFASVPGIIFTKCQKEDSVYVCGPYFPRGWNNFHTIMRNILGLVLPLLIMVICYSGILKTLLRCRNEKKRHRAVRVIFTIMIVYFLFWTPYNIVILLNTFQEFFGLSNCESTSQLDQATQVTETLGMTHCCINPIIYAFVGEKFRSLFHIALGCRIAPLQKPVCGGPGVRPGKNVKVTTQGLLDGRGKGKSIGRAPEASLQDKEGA
experimental.details: MCP-1 Receptor Binding Assay in THP-1 Cells;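 note: THP-1 is a human monocytic cell line, and nonspecific binding was defined with 1 µM unlabeled MCP-1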
test.parameters: 0.5 nM 125I labeled MCP-1, 2 hours at 30° C., read-out: Inhibition of MCP-1 Binding IC50 MCP1B
# strict inequality: IC50 < 300 nM yields y, everything else yields n

# compound, group
records = [
    ("O=C(CNc1ncnc2ccc(C(F)(F)F)cc12)NC1CN([C@H]2CC[C@@H](C3COC(=O)N3)CC2)C1 (stereo partly drawn)", "y"),
    ("CCC(NS(=O)(=O)C(F)(F)F)[C@H]1CC[C@@H](N2CC(NC(=O)CNc3ncnc4ccc(C(F)(F)F)cc34)C2)CC1 (stereo partly drawn)", "n"),
    ("C=CC(O)[C@H]1CC[C@@H](N2CC(NC(=O)CNc3ncnc4ccc(C(F)(F)F)cc34)C2)CC1 (stereo partly drawn)", "y"),
    ("O=C(CNc1ncnc2ccc(C(F)(F)F)cc12)NC1CN([C@H]2CC[C@@H](N3CCOCC3)CC2)C1", "y"),
    ("CCC(O)(CC)[C@H]1CC[C@@H](N2CC(NC(=O)CNc3ncnc4ccc(C(F)(F)F)cc34)C2)CC1", "y"),
    ("CC[C@H](O)C1CCC(N2CC(NC(=O)CNc3nccc4ccc(C(F)(F)F)cc34)C2)CC1 (stereo partly drawn)", "n"),
    ("CC(C)(O)[C@H]1CC[C@@H](N2CC(NC(=O)CNc3ncnc4ccc(C(F)(F)F)cc34)C2)CC1", "y"),
    ("CCC(NC(=O)C(F)(F)F)[C@H]1CC[C@@H](N2CC(NC(=O)CNc3ncnc4ccc(C(F)(F)F)cc34)C2)CC1 (stereo partly drawn)", "n"),
    ("CN(C)CC(O)[C@H]1CC[C@@H](N2CC(NC(=O)CNc3ncnc4ccc(C(F)(F)F)cc34)C2)CC1 (stereo partly drawn)", "n"),
    ("O=C(CNc1ncnc2ccc(C(F)(F)F)cc12)NC1CN([C@H]2CC[C@@H](O)CC2)C1", "y"),
    ("O=C(CNc1ncnc2ccc(C(F)(F)F)cc12)NC1CN([C@H]2CC[C@@H](C3(O)CC=CC3)CC2)C1", "y"),
    ("O=C(CNc1ncnc2ccc(C(F)(F)F)cc12)NC1CN([C@H]2CC[C@@H](CCO)CC2)C1", "y"),
    ("CC(C)[C@@H](O)[C@H]1CC[C@@H](N2CC(NC(=O)CNc3nncc4ccc(C(F)(F)F)cc34)C2)CC1 (racemic)", "n"),
    ("CN1C(=O)CCC1[C@H]1CC[C@@H](N2CC(NC(=O)CNc3ncnc4ccc(C(F)(F)F)cc34)C2)CC1 (stereo partly drawn)", "y"),
    ("CC(C)C(=O)NC[C@H]1CC[C@@H](N2CC(NC(=O)CNc3ncnc4ccc(C(F)(F)F)cc34)C2)CC1", "y"),
    ("CCN(C(C)=O)[C@H]1CC[C@@H](N2CC(NC(=O)CNc3ncnc4ccc(C(F)(F)F)cc34)C2)CC1", "n"),
    ("N#Cc1cc(NCC(=O)NC2CN([C@H]3CC[C@@H](n4ccccc4=O)CC3)C2)c2cc(C(F)(F)F)ccc2n1", "y"),
    ("NC[C@H]1CC[C@@H](N2CC(NC(=O)CNc3ncnc4ccc(C(F)(F)F)cc34)C2)CC1", "y"),
    ("O=C(CNc1ncnc2ccc(C(F)(F)F)cc12)NC1CN(C2CCC(c3ncccc3O)CC2)C1 (stereo not drawn)", "y"),
    ("COc1ccc(CNC(=O)C2CCC(N3CC(NC(=O)CNc4ncnc5ccc(C(F)(F)F)cc45)C3)CC2)c(OC)c1 (stereo not drawn)", "n"),
    ("CC(C)[C@]1(O)CC[C@H](N2CC(NC(=O)CNc3ncnc4ccc(C(F)(F)F)cc34)C2)CC1", "y"),
]
